experimental-system: β-FGF (Homo sapiens)
Sequence (P09038 143-288): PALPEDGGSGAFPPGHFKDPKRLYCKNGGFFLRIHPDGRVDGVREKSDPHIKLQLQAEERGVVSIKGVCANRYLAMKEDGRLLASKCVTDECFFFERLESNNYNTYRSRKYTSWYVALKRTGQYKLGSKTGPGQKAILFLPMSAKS
method-notes: ELISA for determination of binding of β-FGF to heparin
run-parameters: inhibition towards both growth factors
attribute-measured: inhibition of β-FGF binding to heparin

Consider the reported inhibition of β-FGF binding to heparin for these compounds:
smiles-string	inhibition of β-FGF binding to heparin
Cc1c(N2C(=O)c3cc4oc(-c5ccc(Cl)cc5)cc4n3C2=S)c(=O)n(-c2ccccc2)n1C	sub-micromolar
CCOC(=O)CC(C)(C)CN1C(=O)c2cc3oc(-c4ccc([N+](=O)[O-])cc4)cc3n2C1=S	sub-micromolar
COCCCN1C(=O)c2cc3oc(-c4ccc(Cl)cc4)cc3n2C1=S	sub-micromolar
COC(=O)CN(C)C(=O)CC(C)(C)CN1C(=O)c2cc3oc(-c4ccc(Cl)cc4)cc3n2C1=S	sub-micromolar

Please turn your attention to the following entry.
In plain terms, `CC(C)(CC(=O)On1nnc2ccccc2c1=O)CN1C(=O)c2cc3oc(-c4ccc(Cl)cc4)cc3n2C1=S` has a documented inhibition of β-FGF binding to heparin of sub-micromolar

----------
Each entry below carries its measured pIC50, system: β-FGF (Homo sapiens).
Remember, pIC50 is on a log scale: it is -log10 of the molar concentration.

smiles-string	experimental-system	pIC50
CCOC(=O)CC(C)(C)CN1C(=O)c2cc3oc(-c4ccc([N+](=O)[O-])cc4)cc3n2C1=S	β-FGF (Homo sapiens)	7.30

// recorded pIC50 for `CCOC(=O)CCCN1C(=O)c2cc3oc(-c4cccc(C(F)(F)F)c4)cc3n2C1=S` : 6.92

According to the records, this compound `CN(C)CCCNC(=O)CC(C)(C)CN1C(=O)c2cc3oc(-c4ccc(Cl)cc4)cc3n2C1=S` displays pIC50 of 6.36

Memo: `CC(C)(CC(=O)N1CCOCC1)CN1C(=O)c2cc3oc(-c4ccc(Cl)cc4)cc3n2C1=S` , reported pIC50: 6.06

Sample `CCOC(=O)CCCN1C(=O)c2cc3sc(-c4ccc([N+](=O)[O-])cc4)cc3n2C1=S` ; pIC50 observed: 6.55

Entry `CC(C)(CC(=O)N1CCC[C@@H]1C(=O)O)CN1C(=O)c2cc3oc(-c4ccc(Cl)cc4)cc3n2C1=S` — recorded pIC50 = 5.10

Notebook: `CC(C)(CC(=O)On1nnc2ccccc2c1=O)CN1C(=O)c2cc3oc(-c4ccc(Cl)cc4)cc3n2C1=S` , pIC50 read as 6.80

----------
For reference, pIC50 measured on vascular endothelial growth factor (VEGF) (Homo sapiens, UniProt P15692):
In textbook form, pIC50 equals minus log to base ten of the concentration in mol/L.

smiles-string	attribute-measured	observed-measurement
CCN(CC)C(=O)CC1(CN2C(=O)c3cc4oc(-c5ccc(Cl)cc5)cc4n3C2=S)CCCCC1	pIC50	7.05
CC(C)(CC(=O)On1nnc2ccccc2c1=O)CN1C(=O)c2cc3oc(-c4ccc(Cl)cc4)cc3n2C1=S	pIC50	6.59
CCOC(=O)CCCN1C(=O)c2cc3oc(-c4cccc(C(F)(F)F)c4)cc3n2C1=S	pIC50	6.85

Shifting focus to the compound that follows.
Per the reported vascular endothelial growth factor (VEGF) (Homo sapiens, UniProt P15692) data, `CN1CCN(C(=O)CC(C)(C)CN2C(=O)c3cc4oc(-c5ccc(Cl)cc5)cc4n3C2=S)CC1` has pIC50 of 6.54
